targetOrTestSystem: human GLP-1 receptor (Homo sapiens, UniProt P43220)
Construct: expressed in transfected cells
Sequence (P43220 24-463): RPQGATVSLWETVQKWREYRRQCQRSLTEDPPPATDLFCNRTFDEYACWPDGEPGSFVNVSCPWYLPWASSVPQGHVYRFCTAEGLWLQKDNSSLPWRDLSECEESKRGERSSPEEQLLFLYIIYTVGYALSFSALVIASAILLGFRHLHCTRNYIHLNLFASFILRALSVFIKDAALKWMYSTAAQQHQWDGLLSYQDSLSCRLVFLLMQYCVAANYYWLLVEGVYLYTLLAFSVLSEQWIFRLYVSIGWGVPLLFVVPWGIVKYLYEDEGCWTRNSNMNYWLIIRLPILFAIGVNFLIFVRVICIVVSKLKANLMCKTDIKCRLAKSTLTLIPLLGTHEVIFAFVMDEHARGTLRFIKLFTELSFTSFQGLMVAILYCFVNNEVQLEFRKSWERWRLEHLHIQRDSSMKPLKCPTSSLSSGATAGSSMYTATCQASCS
measurementDescription: GLP-1 receptor potency assay (cAMP AlphaScreen, HEK293 cells stably expressing GLP-1R)
Assay type: cell-based
measurementLabel: EC50 (pM)
Form entry: value (pM) — number only.

The reported EC50 value, human GLP-1 receptor (Homo sapiens, UniProt P43220), for H-HGEGTFTSELATILDEQAARDFIAWLIAHKITD-OH [Compound 38] reads 8
